# Tested on: CASKI
# Assay summary: Primary qHTS to identify gynecologic anti-cancer compounds using libraries of approved drugs and bioactive compounds (AID 1345084); note: nearly all actives have a fitted effect of over 55% in size
# Setup conditions: Gynecologic cancer cell panel viability, ATPlite luminescence, 48 h; series mostly up to 57.5 µM
Records with an inconclusive call do not appear. Activity calls are given as the source filed them. Calls come from the whole dose curve; as a rule, active = well fitted cell-killing curve with a large enough effect; inconclusive = small, poorly fitted or top-dose-only effect, or effect the other way; inactive = flat fitted curve, though single readings scatter.
Answer with one of the outcomes 1 (active), 0 (inactive)

COc1cc(C(=O)OC[C@H]2O[C@@H](Oc3ccccc3/C=C/C(=O)O)[C@H](O)[C@@H](O)[C@@H]2O)cc(OC)c1OC ... 0
CC1(C)C[C@H](O)C[C@@]2(C)OC(=O)C=C12 ... 0
c1ccc(-c2csc(N3CCOCC3)n2)cc1 ... 0
CC1C(=O)CC2C3CCC(C(=O)O)C12CC3(C)CO (stereo not given) ... 0
CC(C)(O)CC(CO)NC(=O)CC(O)CC(=O)Cc1ccccc1 (stereo not given) ... 0

Request: How did this test come out for CC(Cc1cc2c(c(C(N)=O)c1)N(CCCO)CC2)NCCOc1ccccc1OCC(F)(F)F (stereo not given) ?
Result: 0

Request: Recorded test outcome, item "Cc1cc(Nc2cc(N3CCN(C)CC3)nc(/C=C/c3ccccc3)n2)n[nH]1"
Result: 1

Request: Assay outcome for "Cc1c(NC(=O)c2cc(C(N)=O)nc3cc(F)ccc23)c(C(F)(F)F)nn1Cc1ccc(C#N)cc1" : what was it?
Result: 0

Request: Hi team, can someone confirm the assay call for CC(=O)N1CCc2ccc(O)c(OC3OC(COC4OCC(O)(CO)C4O)C(O)C(O)C3O)c2C1Cc1ccc(O)cc1 (stereo not given) ?
Result: 0

Request: Record lookup: outcome of this test for "N[C@H]1Cc2ccccc2N(O)C1=O" ?
Result: 0

###

# Target or system: Glutathione peroxidase 1 (Homo sapiens)
# Assay summary: Primary qHTS Assay for Inhibitors of Recombinant Selenoprotein Glutathione Peroxidase 1 (GPX1) (AID 1845191); note: nearly all actives have a fitted effect of over 65% in size
# Setup conditions: recombinant GPX1, GR-coupled NADPH fluorescence, 15 min; series mostly up to 48.8 µM
Results filed as inconclusive are left out. Calls of active or inactive are those of the source. The call rests on the fitted dose curve; in most records, active means well fitted inhibition curve with a large enough effect; inconclusive means small, poorly fitted or top-dose-only effect; inactive means flat fitted curve, though single readings scatter.
Readout kind: activity, negative = inhibition

Some solved cases for reference:
COc1ccc(/C=C/C(=O)O[C@@H]2[C@@H](O)[C@@H](O)[C@H](O[C@@H]3C=C(CO)[C@H]4[C@H](O[C@@H]5O[C@H](CO)[C@@H](O)[C@H](O)[C@H]5O)OC=C[C@H]43)O[C@H]2C)cc1O ... inactive
CCNC(=O)Nc1ncc(-c2cc(-c3c(C)cc(OC)cc3C)nc(-c3cnccn3)n2)s1 ... inactive
N[C@@]1(C(=O)O)CC[C@H]2[C@H](C(=O)O)[C@H]21 ... inactive
CC(=O)OCC1(O)CCC2C(COC3OC(CO)C(O)C(O)C3OC(=O)/C=C/c3ccc(O)cc3)=COC(OC(=O)CC(C)C)C21 (configuration not stated) ... inactive
CC(=O)N[C@H]1[C@H](O[C@H]2CC[C@@]3(C)C(CC[C@]4(C)C3CC=C3[C@@H]5CC(C)(C)CC[C@]5(C(=O)OC5OCC(O)C(O)C5O)CC[C@]34C)C2(C)C)O[C@H](COC2OC(C)C(O)C(OC3OC(C)C(O)C(O)C3O)C2O)[C@@H](O)[C@@H]1O (some centres not stated) ... inactive

Request: Give the measured activity, negative = inhibition of "FC(F)(F)c1cc(-c2ncn(/C=C\c3nnco3)n2)cc(C(F)(F)F)c1" .
Result: inactive

Request: Value lookup for activity, negative = inhibition; key = CC1(C)CC2C(C1)C(C)(O)C13CC1(COC3=O)C2O (configuration not stated)
Result: inactive
